These data points were gathered from paper PMC7920489.

Test: in vivo
Settings: nude, mouse, ip, 50 mg/kg

>  <Smiles data>
COc1cccc(-c2cc(=O)c3ccccc3o2)c1NC(=O)C(C)(C)c1cc(C(=O)Nc2ccc(N(CCCl)CCCl)cc2)ccc1N

>  <Unit abbreviation>
h

>  <tmax>
2

$$$$
